These measurements were taken from patent US20220396632A1.

target: T1, Human complement C4 protein (Millipore Sigma, Cat. 204886) (human, UniProt P0C0L4 20-675; P0C0L4 680-1446; P0C0L4 1454-1744, limits assumed, natural sulfotyrosines); assay: ELISA, 50 nM mAb
T1 construct: mature
T1 sequence (P0C0L4 20-675 limits assumed, form in doubt, chain 1 of 3): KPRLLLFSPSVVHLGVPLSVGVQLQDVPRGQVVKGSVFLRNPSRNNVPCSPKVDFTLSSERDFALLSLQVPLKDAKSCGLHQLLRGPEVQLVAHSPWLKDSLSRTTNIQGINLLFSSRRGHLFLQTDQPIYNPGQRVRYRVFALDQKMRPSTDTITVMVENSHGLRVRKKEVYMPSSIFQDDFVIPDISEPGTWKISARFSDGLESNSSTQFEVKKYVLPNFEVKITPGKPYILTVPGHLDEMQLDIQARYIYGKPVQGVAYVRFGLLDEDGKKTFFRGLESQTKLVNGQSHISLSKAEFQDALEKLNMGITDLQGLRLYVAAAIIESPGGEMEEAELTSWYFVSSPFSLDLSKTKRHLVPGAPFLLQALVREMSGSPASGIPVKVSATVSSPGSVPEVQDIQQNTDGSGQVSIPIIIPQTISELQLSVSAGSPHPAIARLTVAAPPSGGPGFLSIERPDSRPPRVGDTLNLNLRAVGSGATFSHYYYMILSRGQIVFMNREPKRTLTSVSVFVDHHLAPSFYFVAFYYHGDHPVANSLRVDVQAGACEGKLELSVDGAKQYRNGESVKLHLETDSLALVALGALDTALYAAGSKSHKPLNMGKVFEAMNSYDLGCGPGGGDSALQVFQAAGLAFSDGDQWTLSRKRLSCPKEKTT
T1 sequence (P0C0L4 680-1446 limits assumed, form in doubt, chain 2 of 3): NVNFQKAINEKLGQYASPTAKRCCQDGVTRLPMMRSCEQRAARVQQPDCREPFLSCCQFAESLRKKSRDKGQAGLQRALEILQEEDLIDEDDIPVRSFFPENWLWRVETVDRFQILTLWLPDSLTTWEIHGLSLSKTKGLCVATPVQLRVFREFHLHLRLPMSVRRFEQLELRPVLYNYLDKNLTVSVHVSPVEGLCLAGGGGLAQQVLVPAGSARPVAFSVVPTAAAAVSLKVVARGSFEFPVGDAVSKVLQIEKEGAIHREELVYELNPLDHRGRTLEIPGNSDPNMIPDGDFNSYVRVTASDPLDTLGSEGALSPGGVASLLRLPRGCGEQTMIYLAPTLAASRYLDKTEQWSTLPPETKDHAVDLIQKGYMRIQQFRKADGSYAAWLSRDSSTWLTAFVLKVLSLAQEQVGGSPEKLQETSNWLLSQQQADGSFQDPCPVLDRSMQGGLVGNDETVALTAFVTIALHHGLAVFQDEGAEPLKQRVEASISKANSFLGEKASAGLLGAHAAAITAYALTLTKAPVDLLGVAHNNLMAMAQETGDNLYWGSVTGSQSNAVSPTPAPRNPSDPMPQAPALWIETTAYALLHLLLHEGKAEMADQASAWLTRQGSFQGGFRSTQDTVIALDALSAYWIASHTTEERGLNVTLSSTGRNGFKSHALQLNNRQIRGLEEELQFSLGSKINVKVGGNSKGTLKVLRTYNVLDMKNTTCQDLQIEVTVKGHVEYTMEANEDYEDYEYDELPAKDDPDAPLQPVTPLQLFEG
T1 sequence (P0C0L4 1454-1744 limits assumed, form in doubt, chain 3 of 3): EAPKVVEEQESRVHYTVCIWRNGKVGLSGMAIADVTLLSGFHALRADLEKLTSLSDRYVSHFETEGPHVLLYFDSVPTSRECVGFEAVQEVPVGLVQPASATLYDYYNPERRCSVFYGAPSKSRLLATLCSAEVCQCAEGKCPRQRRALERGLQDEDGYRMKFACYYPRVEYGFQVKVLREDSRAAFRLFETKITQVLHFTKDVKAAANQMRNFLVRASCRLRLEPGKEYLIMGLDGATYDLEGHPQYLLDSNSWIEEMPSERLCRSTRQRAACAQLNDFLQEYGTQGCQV
ASSAY_ENDPOINT: binding normalized to PSGL-1
Give the figure only, with no unit attached.

Recorded binding normalized to PSGL-1 for 2E12 (antibody, V domains shown, Mouse hybridoma mAb; only variable domains given) VH: QVQLQQSGAELARPGASVKLSCKASGYTFTNYGLNWVKQRTGQGLEWIGEIYPRSGNTYYNEKFKGKATLTADKSSSTAYMQLSSLTSEDSAVYFCATEGAYWGQGTLVTVSA VL: DIVMTQTPLTLSVTIGQPASISCKSSQSLLHGNGKTYLNWLLQRPGQSPKLLIYLVSKLESGIPDRFSGSGSGTDFTLEISRVEAEDLGIYYCLQSTHFPRTFGGGTKLEIK , please?
0.1

Reported binding normalized to PSGL-1, binder 09B09 (antibody, IgG4, V domains shown) VH: EVKLLESGGGLVQPGGSLRLSCAASGITFSTYAMMWVRQAPGKGLEWVSGISGSGASRYYADSVKGRFTISRDNSKNMLYLQMNSLRAEDTAVYYCAKKVLGRRKQYFDDWGQGTLVTVSS VL: DIVMTQSPLSLPVTPGEPASISCRSSQSLLHSNGYNYLDWYLQRPGQSPQLLIYLGSHRASGVPDRFSGSGSGTEHTLKITTVAAEDVGVYYCMQALQSPPTFGQGTRLDIK : ____
0.22
